- method_summary: Plasma pharmacokinetics by validated LC/MS-MS (cycle 1, day 15)
- Type: in vivo
- assay_setup: human, oral, camizestrant 150 mg + abemaciclib, Cycle 1 Day 15, median
- Method: Details of safety and efficacy assessments and of ctDNA sampling and assessments have been described previously ([37]). For PK analyses, plasma concentrations of camizestrant, abemaciclib, palbociclib, and ribociclib were determined using validated LC/MS-MS. Details of assessments and analysis sets have been described previously ([38]). Briefly, safety was assessed in the safety analysis set, and efficacy and antitumor activity were assessed in the evaluable-for-response set. […]
result_type: Tmax (h)
Write down the numeric answer in h and omit the unit.

# compound C[C@@H]1Cc2c(ccc3[nH]ncc23)[C@@H](c2ccc(NC3CN(CCCF)C3)cn2)N1CC(F)(F)F ; its Tmax = 4

====

- method_summary: Plasma pharmacokinetics by validated LC/MS-MS (cycle 1, day 15)
- Assay type: in vivo
- assay_setup: human, oral, 75 mg, camizestrant 75 mg monotherapy, Cycle 1 Day 15, median
result_type: Tmax (h)
Write down the numeric answer in h and omit the unit.

# molecule C[C@@H]1Cc2c(ccc3[nH]ncc23)[C@@H](c2ccc(NC3CN(CCCF)C3)cn2)N1CC(F)(F)F ; its Tmax = 3.72

====

- method_summary: Plasma pharmacokinetics by validated LC/MS-MS (cycle 1, day 15)
- Type: in vivo
- assay_setup: human, oral, camizestrant 300 mg + palbociclib, Cycle 1 Day 15, geomean
result_type: AUC (ng·h/mL)
Write down the numeric answer in ng·h/mL and omit the unit.

# compound C[C@@H]1Cc2c(ccc3[nH]ncc23)[C@@H](c2ccc(NC3CN(CCCF)C3)cn2)N1CC(F)(F)F ; its AUC = 4940

====

- method_summary: Plasma pharmacokinetics by validated LC/MS-MS (cycle 1, day 15)
- Format: in vivo
- assay_setup: human, oral, across combinations, PK sampled up to 24 hours, likely underestimated, read-out: Estimated half-life of camizestrant
result_type: half-life

# compound C[C@@H]1Cc2c(ccc3[nH]ncc23)[C@@H](c2ccc(NC3CN(CCCF)C3)cn2)N1CC(F)(F)F [camizestrant] ; its half-life = 9.5 to 17 h

====

- method_summary: Plasma pharmacokinetics by validated LC/MS-MS (cycle 1, day 15)
- Type: in vivo
- assay_setup: human, oral, camizestrant 75 mg + abemaciclib, Cycle 1 Day 15, median
result_type: Tmax (h)
Write down the numeric answer in h and omit the unit.

# molecule C[C@@H]1Cc2c(ccc3[nH]ncc23)[C@@H](c2ccc(NC3CN(CCCF)C3)cn2)N1CC(F)(F)F [camizestrant] ; its Tmax = 4

====

- method_summary: Plasma pharmacokinetics by validated LC/MS-MS (cycle 1, day 15)
- Format: in vivo
- assay_setup: human, oral, camizestrant 150 mg + abemaciclib, Cycle 1 Day 15, geomean
result_type: Cmax (ng/mL)
Write down the numeric answer in ng/mL and omit the unit.

# compound C[C@@H]1Cc2c(ccc3[nH]ncc23)[C@@H](c2ccc(NC3CN(CCCF)C3)cn2)N1CC(F)(F)F ; its Cmax = 159

====

- method_summary: Plasma pharmacokinetics by validated LC/MS-MS (cycle 1, day 15)
- Format: in vivo
- assay_setup: human, oral, camizestrant 75 mg + ribociclib (400 mg), Cycle 1 Day 15, geomean
result_type: Cmax (ng/mL)
Write down the numeric answer in ng/mL and omit the unit.

# molecule C[C@@H]1Cc2c(ccc3[nH]ncc23)[C@@H](c2ccc(NC3CN(CCCF)C3)cn2)N1CC(F)(F)F [camizestrant] ; its Cmax = 154
